- assayed target: rabbit albumin (Oryctolagus cuniculus, UniProt P49065)
- Sequence (P49065 25-608): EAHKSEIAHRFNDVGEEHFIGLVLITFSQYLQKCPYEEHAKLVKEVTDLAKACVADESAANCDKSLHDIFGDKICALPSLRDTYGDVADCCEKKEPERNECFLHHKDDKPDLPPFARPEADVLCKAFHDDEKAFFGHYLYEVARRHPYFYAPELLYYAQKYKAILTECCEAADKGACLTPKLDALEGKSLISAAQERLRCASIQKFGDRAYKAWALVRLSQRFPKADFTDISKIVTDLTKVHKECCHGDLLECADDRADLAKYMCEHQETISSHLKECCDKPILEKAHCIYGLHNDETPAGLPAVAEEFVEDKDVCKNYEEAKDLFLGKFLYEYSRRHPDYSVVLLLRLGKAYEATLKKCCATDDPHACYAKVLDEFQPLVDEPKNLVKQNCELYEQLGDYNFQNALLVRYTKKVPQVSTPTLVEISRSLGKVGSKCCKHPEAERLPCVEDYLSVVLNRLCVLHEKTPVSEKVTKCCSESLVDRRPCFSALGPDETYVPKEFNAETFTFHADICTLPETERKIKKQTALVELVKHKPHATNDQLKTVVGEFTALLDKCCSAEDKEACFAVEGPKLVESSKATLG
- method description: Direct Binding ELISA, AB.Fab variants on immobilized rabbit albumin
- Design: purchased Sigma
- condition notes: average and SD of at least 3 determinations
Bridges are numbered along the chain shown (N, C = ends). Where no end group is shown, it is not given here.
observation type: EC50 (nM)
// note: answer is a bare numeric in nM

Returns the measured EC50 for the input substance. Input: 4D5-H8: AB.Fab variant of Fab4D5 with shortened albumin-binding peptide on heavy chain, no GGGS linker (Table 12) (IEDICLPRWGCLWE; disulfide 5-11 (inferred); also: part of Fab heavy chain)
500

Which EC50 reading was recorded for the substance 4D5-H4: AB.Fab variant of Fab4D5 with shortened albumin-binding peptide on heavy chain, no GGGS linker (Table 12) (DICLPRWGCLWED; disulfide 3-9 (inferred); also: part of Fab heavy chain) ?
500
